This collection of values is drawn from patent US10894798B2.

target: CDK7 (Homo sapiens, UniProt P50613)
Sequence (P50613 whole entry): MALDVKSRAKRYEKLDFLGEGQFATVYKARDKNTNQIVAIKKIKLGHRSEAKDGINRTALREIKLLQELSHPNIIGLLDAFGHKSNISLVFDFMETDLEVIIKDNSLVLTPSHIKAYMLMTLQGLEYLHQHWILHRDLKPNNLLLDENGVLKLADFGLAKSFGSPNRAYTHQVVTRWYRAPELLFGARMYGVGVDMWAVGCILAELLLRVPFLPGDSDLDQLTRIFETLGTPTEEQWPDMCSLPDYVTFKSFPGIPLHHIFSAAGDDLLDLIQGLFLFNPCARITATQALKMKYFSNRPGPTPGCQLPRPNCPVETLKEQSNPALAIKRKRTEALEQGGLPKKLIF
Sequence (P51946 whole entry partner): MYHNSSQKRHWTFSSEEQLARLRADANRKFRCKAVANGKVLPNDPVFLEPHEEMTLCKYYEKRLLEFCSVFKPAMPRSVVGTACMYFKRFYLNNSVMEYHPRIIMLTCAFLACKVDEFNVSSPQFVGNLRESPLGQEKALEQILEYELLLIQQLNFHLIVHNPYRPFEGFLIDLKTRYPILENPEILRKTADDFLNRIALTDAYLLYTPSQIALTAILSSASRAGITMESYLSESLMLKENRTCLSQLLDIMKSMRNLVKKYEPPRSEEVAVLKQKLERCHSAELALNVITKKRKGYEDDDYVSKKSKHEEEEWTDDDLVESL
Sequence (P51948 whole entry partner): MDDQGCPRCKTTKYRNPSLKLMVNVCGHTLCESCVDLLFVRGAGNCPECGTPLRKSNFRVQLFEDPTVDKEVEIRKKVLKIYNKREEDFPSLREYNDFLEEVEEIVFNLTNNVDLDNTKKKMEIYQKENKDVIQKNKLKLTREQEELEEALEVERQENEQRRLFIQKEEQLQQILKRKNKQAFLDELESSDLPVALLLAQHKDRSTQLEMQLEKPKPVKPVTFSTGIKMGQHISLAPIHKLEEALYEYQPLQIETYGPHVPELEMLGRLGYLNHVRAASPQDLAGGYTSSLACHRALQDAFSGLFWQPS
pKi: −log10 of the molar value.
Collected pKi values appear next to each entry.

Use these answered entries as a reference point.
- Smiles String: "Cc1cccc(C)c1NC(=O)N1Cc2c(NC(=O)C3([Si](C)(C)C)CCC3)n[nH]c2C1(C)C"
  pKi: "≥ 7.30"
- Smiles String: "Cc1cccc(F)c1NC(=O)N1Cc2c(NC(=O)C3([Si](C)(C)C)CCC3)n[nH]c2C1(C)C"
  pKi: "≥ 7.30"
- Smiles String: "Cc1ccccc1NC(=O)N1Cc2c(NC(=O)C3([Si](C)(C)C)CCC3)n[nH]c2C1(C)C"
  pKi: "≥ 7.30"
- Smiles String: "Cc1nscc1NC(=O)N1Cc2c(NC(=O)C3([Si](C)(C)C)CCC3)n[nH]c2C1(C)C"
  pKi: "≥ 7.30"
- Smiles String: "COc1ccccc1NC(=O)N1Cc2c(NC(=O)C3([Si](C)(C)C)CCC3)n[nH]c2C1(C)C"
  pKi: "≥ 7.30"
- Smiles String: "CC1(C)c2[nH]nc(NC(=O)C3([Si](C)(C)C)CCC3)c2CN1C(=O)Nc1cccnc1"
  pKi: "≥ 7.30"

Provide value of pKi for this record tested with CDK7 (Homo sapiens, UniProt P50613): `CCc1cccc(C)c1NC(=O)N1Cc2c(NC(=O)C3([Si](C)(C)C)CCC3)n[nH]c2C1(C)C`
≥ 7.30

# query: pKi | item `CC1(C)c2[nH]nc(NC(=O)C3([Si](C)(C)C)CCC3)c2CN1C(=O)Nc1c(F)cccc1C#N` | system: CDK7 (Homo sapiens, UniProt P50613)
≥ 7.30
